test: Metabolic stability in liver microsomes, MLM; settings: 1 μM, NADPH
Where a name gives a salt, the structure may show the parent alone.
The reader will find reported Metabolic stability MLM % remaining in 30 min values listed item by item below.
Report the figure in % without appending any unit label.

Here's what some known entries look like.
{"Molecule": "O=C(NO)c1ccc(/C=C/C(=O)N2CCC(CN[C@@H]3C[C@H]3c3ccccc3)CC2)cc1 [Example 114A, TFA Salt]", "Value Units": "%", "Readout Number": 62}
{"Molecule": "O=C(NO)c1cccc(CNC2CC2c2ccc(Br)cc2)c1 (centres unmarked) [Example 26, TFA Salt]", "Value Units": "%", "Readout Number": 13}
{"Molecule": "Cn1cc(-c2ccc(C3CC3NCC3CCN(Cc4ccc(C(=O)Nc5ccccc5N)cc4)CC3)cc2)ccc1=O (centres unmarked) [Example 141, TFA Salt]", "Value Units": "%", "Readout Number": 75}

Q: Param item = O=C(NO)c1ccc(CN2CCc3ccc(CNC4CC4c4ccc(F)cc4)cc3C2)cc1 (centres unmarked) [Example 79, TFA Salt] ; retrieve measured Metabolic stability MLM % remaining in 30 min.
A: 6

* * *

The reader will find reported Metabolic stability MLM % remaining in 30 min values listed item by item below.
experiment: Metabolic stability in liver microsomes, MLM; conditions: 1 μM, NADPH
Structures can show the parent of a compound that is named as a salt.

Here's what some known entries look like.
{"Compound": "Nc1ccccc1NC(=O)c1cnc(NCCN2CCC(CNC3CC3c3ccc(F)cc3)CC2)nc1 (stereo not shown) [Example 150, TFA Salt]", "Result": ">95/>95%"}
{"Compound": "O=C(NO)c1cccc(CNC2CC2c2ccccc2)c1 (stereo not shown) [Example 27, TFA]", "Result": "51%"}
{"Compound": "Nc1ccccc1NC(=O)c1ccc(CCCN2CCC(CNC3CC3c3ccc(C(=O)N4CCCCC4)cc3)CC2)cc1 (stereo not shown) [Example 125, TFA Salt]", "Result": "49%"}
{"Compound": "Nc1ccccc1NC(=O)c1cc2c(s1)CCN(C(=O)CNC1CC1c1ccc(F)cc1)C2 (stereo not shown) [Example 151, TFA Salt]", "Result": "18%"}
{"Compound": "Nc1ccccc1NC(=O)c1ccc(CCCN2CCC(CNC3CC3c3ccc(F)cc3)CC2)cc1 (stereo not shown) [Example 122, TFA Salt]", "Result": "72%"}

Now consider a different compound.
Q: Param item = O=C(NO)c1ccc(CCC(=O)N2CCN(C(=O)CNC3CC3c3ccccc3)CC2)cc1 (stereo not shown) [Example 92, TFA Salt] ; retrieve measured Metabolic stability MLM % remaining in 30 min.
A: 91%

* * *

The reader will find reported Metabolic stability HLM % remaining in 30 min values listed item by item below.
experiment: Metabolic stability in liver microsomes, HLM; conditions: 1 μM, NADPH
Counter-ions that a name gives are not always drawn.
Report the figure in % without appending any unit label.

Here's what some known entries look like.
{"Compound": "O=C(NO)c1ccc(CCCN2CCC(CNC3CC3c3cccc(F)c3)CC2)cc1 (centres unmarked) [Example 49, TFA Salt]", "Value Units": "%", "Readout Number": 48}
{"Compound": "O=C(NO)c1ccc(CNC2CC2c2ccccc2)cc1 (centres unmarked) [Example 28, TFA Salt]", "Value Units": "%", "Readout Number": 73}
{"Compound": "O=C(NO)c1cnc(N2CCC(NC3CC3c3ccc(F)cc3)CC2)nc1 (centres unmarked) [Example 10, TFA salt]", "Value Units": "%", "Readout Number": 81}
{"Compound": "CN(C)CCNC(=O)c1ccc(C2CC2NCC2CCN(CCCc3ccc(C(=O)NO)cc3)CC2)cc1 (centres unmarked) [Example 55, TFA Salt]", "Value Units": "%", "Readout Number": 40}
{"Compound": "Cc1noc(C)c1-c1ccc(C2CC2NCc2ccc(/C=C/C(=O)NO)cc2)cc1 (centres unmarked) [Example 6, TFA Salt]", "Value Units": "%", "Readout Number": 44}
{"Compound": "O=C(NO)c1ccc2c(c1)CN(C(=O)CN[C@H]1C[C@@H]1c1ccc(F)cc1)CC2 [Example 104A, TFA Salt]", "Value Units": "%", "Readout Number": 74}
{"Compound": "O=C(NO)c1csc(CCCN2CCC(CNC3CC3c3ccc(-c4ccc(F)cc4)cc3)CC2)n1 (centres unmarked) [Example 111, TFA Salt]", "Value Units": "%", "Readout Number": 95}

Q: Param item = O=C(NO)c1ccc(CN2CCC(CNC3CC3c3ccc(-c4cncnc4)cc3)CC2)cc1 (centres unmarked) [Example 38, TFA Salt] ; retrieve measured Metabolic stability HLM % remaining in 30 min.
A: 87

* * *

The reader will find reported Metabolic stability MLM % remaining in 30 min values listed item by item below.
assay: Metabolic stability in liver microsomes, MLM; conditions: 1 μM, NADPH
Counter-ions that a name gives are not always drawn.
Report the figure in % without appending any unit label.

Here's what some known entries look like.
{"Compound": "CN(C)CCNC(=O)c1ccc(C2CC2NCC2CCN(CCCc3ccc(C(=O)NO)cc3)CC2)cc1 (stereo not shown) [Example 55, TFA Salt]", "Readout Number": 36}
{"Compound": "Nc1ccc(F)cc1NC(=O)c1ccc(CCCN2CCC(CNC3CC3c3ccc(F)cc3)CC2)cc1 (stereo not shown) [Example 132, TFA Salt]", "Readout Number": 80}

Now consider a different compound.
Q: Param item = Cc1noc(C)c1-c1ccc(C2CC2NCC2CCN(C(=O)/C=C/c3ccc(C(=O)NO)cc3)CC2)cc1 (stereo not shown) [Example 116, TFA Salt] ; retrieve measured Metabolic stability MLM % remaining in 30 min.
A: 50

Source: patent US11352322B2
